target: Kappa-type opioid receptor (Homo sapiens, UniProt P41145)
Sequence (P41145 whole entry): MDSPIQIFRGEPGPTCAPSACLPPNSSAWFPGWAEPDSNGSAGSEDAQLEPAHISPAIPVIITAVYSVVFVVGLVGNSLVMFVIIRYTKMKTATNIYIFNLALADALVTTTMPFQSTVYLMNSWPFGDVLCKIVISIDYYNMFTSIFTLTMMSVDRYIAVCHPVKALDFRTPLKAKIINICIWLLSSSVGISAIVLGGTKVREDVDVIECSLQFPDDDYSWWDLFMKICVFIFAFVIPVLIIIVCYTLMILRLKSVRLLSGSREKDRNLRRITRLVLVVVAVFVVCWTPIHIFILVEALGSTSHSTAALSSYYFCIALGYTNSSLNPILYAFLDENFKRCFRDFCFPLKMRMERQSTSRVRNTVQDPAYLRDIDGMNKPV
pIC50: −log10 of the molar value.
Please note: rule met applies when pIC50 is 7 or greater, and rule not met applies otherwise.

[in] Dear colleague, could you confirm whether O=c1c(-c2cccs2)cccn1C(CN1CCCC1)c1ccccc1 (stereo unspecified) has pIC50 at or above 7?
[out] rule not met

[in] Dear colleague, could you confirm whether O=c1c(-c2ccc(C(F)(F)F)cc2)cccn1C(CN1CCCC1)c1ccccc1 (stereo unspecified) has pIC50 at or above 7?
[out] rule met

[in] Dear colleague, could you confirm whether O=c1c(-c2cc3ccccc3o2)cccn1C(CN1CCCC1)c1ccccc1 (stereo unspecified) has pIC50 at or above 7?
[out] rule not met

[in] Dear colleague, could you confirm whether O=c1c(-c2ccccc2)cccn1C(CN1CCCC1)c1ccccc1 (stereo unspecified) has pIC50 at or above 7?
[out] rule met

[in] Dear colleague, could you confirm whether O=c1ccc(-c2ccc(Cl)c(Cl)c2)cn1C(CN1CCCC1)c1ccccc1 (stereo unspecified) has pIC50 at or above 7?
[out] rule not met

[in] Dear colleague, could you confirm whether COc1ccc(F)cc1-c1cccn(C(CN2CCCC2)c2ccccc2)c1=O (stereo unspecified) has pIC50 at or above 7?
[out] rule met

[in] Dear colleague, could you confirm whether O=c1c(-c2ccc(Cl)c(Cl)c2)cccn1C(CN1CCCC1)c1ccccc1 (stereo unspecified) has pIC50 at or above 7?
[out] rule met

[in] Dear colleague, could you confirm whether O=c1c(-c2cccc(Cl)c2)cccn1C(CN1CCCC1)c1ccccc1 (stereo unspecified) has pIC50 at or above 7?
[out] rule met

[in] Dear colleague, could you confirm whether COc1ccc(Cl)cc1-c1cccn(C(CN2CCCC2)c2ccccc2)c1=O (stereo unspecified) has pIC50 at or above 7?
[out] rule met

[in] Dear colleague, could you confirm whether O=c1c(-c2ccc(Cl)cc2)cccn1C(CN1CCCC1)c1ccccc1 (stereo unspecified) has pIC50 at or above 7?
[out] rule met

[in] Dear colleague, could you confirm whether O=c1c(-c2ccccc2C(F)(F)F)cccn1C(CN1CCCC1)c1ccccc1 (stereo unspecified) has pIC50 at or above 7?
[out] rule met

[in] Dear colleague, could you confirm whether O=c1c(-c2cc(F)ccc2F)cccn1C(CN1CCCC1)c1ccccc1 (stereo unspecified) has pIC50 at or above 7?
[out] rule met

[in] Dear colleague, could you confirm whether O=c1c(-c2ccc(OC(F)(F)F)cc2)cccn1C(CN1CCCC1)c1ccccc1 (stereo unspecified) has pIC50 at or above 7?
[out] rule met

[in] Dear colleague, could you confirm whether O=c1ccc(-c2ccc(Cl)cc2)cn1C(CN1CCCC1)c1ccccc1 (stereo unspecified) has pIC50 at or above 7?
[out] rule not met

[in] Dear colleague, could you confirm whether O=c1c(-c2cccc([N+](=O)[O-])c2)cccn1C(CN1CCCC1)c1ccccc1 (stereo unspecified) has pIC50 at or above 7?
[out] rule met

[in] Dear colleague, could you confirm whether O=c1c(-c2ccc3ccccc3c2)cccn1C(CN1CCCC1)c1ccccc1 (stereo unspecified) has pIC50 at or above 7?
[out] rule met

[in] Dear colleague, could you confirm whether N#Cc1cccc(-c2cccn(C(CN3CCCC3)c3ccccc3)c2=O)c1 (stereo unspecified) has pIC50 at or above 7?
[out] rule met

[in] Dear colleague, could you confirm whether COc1ccc(OC)c(-c2cccn(C(CN3CCCC3)c3ccccc3)c2=O)c1 (stereo unspecified) has pIC50 at or above 7?
[out] rule met

[in] Dear colleague, could you confirm whether COc1ccccc1-c1cccn(C(CN2CCCC2)c2ccccc2)c1=O (stereo unspecified) has pIC50 at or above 7?
[out] rule met

[in] Dear colleague, could you confirm whether O=c1c(-c2ccc(F)cc2)cccn1C(CN1CCCC1)c1ccccc1 (stereo unspecified) has pIC50 at or above 7?
[out] rule met
